Tested on: A549 cells
Settings: 10 µM
Cell Viability class ranges: low bin = under 70%, mid bin = from 70% up to 80%, high bin = 80% and over

Challenge: Please let me know in which category the item CN(C)Cc1ccc(-c2cc3cc(Br)ccc3nc2OCc2cccc3ccccc23)cc1F belongs.
Response given: high bin

Challenge: Please let me know in which category the item Fc1cccc(COc2nc3ccc(Br)cc3cc2-c2cccc(Oc3ccccn3)c2)c1 belongs.
Response given: high bin

Challenge: Please let me know in which category the item CN(C)Cc1ccc(-c2cc3cc(Br)ccc3nc2N2CCN(C)CC2)cc1 belongs.
Response given: low bin

Challenge: Please let me know in which category the item Brc1ccc2nc(OCc3cccc4ccccc34)c(-c3ccc(Cn4ccnc4)cc3)cc2c1 belongs.
Response given: mid bin

Challenge: Please let me know in which category the item COc1cc(-c2cc3cc(Br)ccc3nc2OCc2cccc3ccccc23)ccc1CN(C)C belongs.
Response given: mid bin

Challenge: Please let me know in which category the item CN(C)CCNc1nc2ccc(Br)cc2cc1-c1ccc(CN(C)C)cc1 belongs.
Response given: low bin

Challenge: Please let me know in which category the item COc1nc2ccc(Br)cc2cc1C(c1ccccc1)C1(OC(=O)c2ccccc2)CCN(C)CC1 (stereo not drawn) belongs.
Response given: high bin

Challenge: Please let me know in which category the item CN(C)Cc1ccc(-c2cc3ccccc3nc2OCc2cccc3ccccc23)cc1 belongs.
Response given: high bin

Challenge: Please let me know in which category the item COc1nc2ccc(Br)cc2cc1C(c1ccccc1)N(CCN(C)C)c1cccc2ccccc12 (stereo not drawn) belongs.
Response given: high bin

Challenge: Please let me know in which category the item COc1nc2ccccc2cc1C(c1ccccc1)n1c(=O)n(CCCN(C)C)c2ccccc21 (stereo not drawn) belongs.
Response given: high bin

Challenge: Please let me know in which category the item Brc1ccc2nc(Oc3cccc4ccccc34)c(-c3ccccc3)cc2c1 belongs.
Response given: high bin

Challenge: Please let me know in which category the item CN(C)CCC=C(c1ccccc1)c1cc2ccccc2nc1Oc1cccc2ccccc12.Cl belongs.
Response given: high bin

Challenge: Please let me know in which category the item COc1nc2ccc(Br)cc2cc1C(Nc1ccccc1OCCN(C)C)c1ccccc1 (stereo not drawn) belongs.
Response given: mid bin

Challenge: Please let me know in which category the item CN(C)C(=O)Cc1ccc(-c2cc3cc(Br)ccc3nc2OCc2cccc3ccccc23)cc1 belongs.
Response given: low bin

Challenge: Please let me know in which category the item COc1cc(CN(C)C)ccc1-c1cc2cc(Br)ccc2nc1OCc1cccc2ccccc12 belongs.
Response given: low bin
